System: ATP;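 further: ATP exposure 15 min at 22 °C before imaging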
run.description: switch fluorescence ratio, 500 uM ATP over buffer (Cy3 cluster intensity, sum of 5 cycles each) (fold (ratio)); higher = stronger signal-on switching upon ATP binding; sequences stand for … in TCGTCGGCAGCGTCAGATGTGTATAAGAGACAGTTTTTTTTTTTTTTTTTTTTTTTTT…TC
test.conditions: aptamer strand: ATP DNA aptamer (quencher-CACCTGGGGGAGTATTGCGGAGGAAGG + anchor), 100 nM annealed; ATP concentration: 500 uM

- seq: "TTTCAGTGAC"
  assay.system: "ATP"
  switch fluorescence ratio: 1.04
- seq: "AGGAGTATTT"
  assay.system: "ATP"
  switch fluorescence ratio: 1
- seq: "TACATTTCCA"
  assay.system: "ATP"
  switch fluorescence ratio: 1.04
- seq: "TAATTCGGCA"
  assay.system: "ATP"
  switch fluorescence ratio: 0.995
- seq: "TTGGGAGGAG"
  assay.system: "ATP"
  switch fluorescence ratio: 1.01
- seq: "TTAAGGGTCC"
  assay.system: "ATP"
  switch fluorescence ratio: 0.984
- seq: "GCTTGCTATT"
  assay.system: "ATP"
  switch fluorescence ratio: 0.965
- seq: "CTGGCTTGAC"
  assay.system: "ATP"
  switch fluorescence ratio: 0.983
- seq: "CGCGTTGGGG"
  assay.system: "ATP"
  switch fluorescence ratio: 1.03
- seq: "CGGCATTCAA"
  assay.system: "ATP"
  switch fluorescence ratio: 0.999

---

Test system: ATP;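 further: ATP exposure 15 min at 22 °C before imaging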
run.description: switch fluorescence ratio, 500 uM ATP over buffer (Cy3 cluster intensity, sum of 5 cycles each) (fold (ratio)); higher = stronger signal-on switching upon ATP binding; sequences stand for … in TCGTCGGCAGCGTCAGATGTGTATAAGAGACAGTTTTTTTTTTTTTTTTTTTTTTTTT…TC
test.conditions: aptamer strand: ATP DNA aptamer (quencher-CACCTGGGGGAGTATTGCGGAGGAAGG + anchor), 100 nM annealed; ATP concentration: 500 uM
Use 1 as the dividing line for switch fluorescence ratio, with the line itself on the label 1 side and lower values as label 0.

- seq: "TTGTTAGGGC"
  discrete.label: "label 1"
- seq: "GACGAATCAG"
  discrete.label: "label 0"
- seq: "AAACGGACGG"
  discrete.label: "label 1"
- seq: "TTTTGATTCC"
  discrete.label: "label 1"
- seq: "GCGTGGGGAA"
  discrete.label: "label 1"

---

System: ATP;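 further: ATP exposure 15 min at 22 °C before imaging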
run.description: switch fluorescence ratio, 500 uM ATP over buffer (Cy3 cluster intensity, sum of 5 cycles each) (fold (ratio)); higher = stronger signal-on switching upon ATP binding; sequences stand for … in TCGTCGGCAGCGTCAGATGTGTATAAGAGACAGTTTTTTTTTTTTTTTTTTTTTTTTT…TC
test.conditions: aptamer strand: ATP DNA aptamer (quencher-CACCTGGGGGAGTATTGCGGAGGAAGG + anchor), 100 nM annealed; ATP concentration: 500 uM

- seq: "ATCGGTCGGG"
  switch fluorescence ratio: 1.01
- seq: "CGGGTATTGC"
  switch fluorescence ratio: 1.03
- seq: "TGGGGGAAGT"
  switch fluorescence ratio: 1.01
- seq: "CCGTTGTGGA"
  switch fluorescence ratio: 1.04
- seq: "CTCTGAGGGC"
  switch fluorescence ratio: 1.07
- seq: "GCGGAGAGAT"
  switch fluorescence ratio: 1.27
- seq: "TTTGAAAACT"
  switch fluorescence ratio: 0.995
- seq: "CTCCAATAGT"
  switch fluorescence ratio: 1.79
- seq: "CGGAAGAAAT"
  switch fluorescence ratio: 1.02
- seq: "GCGGTAGTTC"
  switch fluorescence ratio: 1.02
